Where do the numbers come from? From patent US12570659B2.

Parameter Ratio of JAK3 IC50 to IRAK4 IC50: see the listing below.
biological target: JAK3 kinase (Homo sapiens (Human)); assay: JAK3 Homogeneous Time Resolved Fluorescence (HTRF) Assay; type: binding; conditions: selectivity for IRAK4 over JAK3
Sequence (P52333 whole entry): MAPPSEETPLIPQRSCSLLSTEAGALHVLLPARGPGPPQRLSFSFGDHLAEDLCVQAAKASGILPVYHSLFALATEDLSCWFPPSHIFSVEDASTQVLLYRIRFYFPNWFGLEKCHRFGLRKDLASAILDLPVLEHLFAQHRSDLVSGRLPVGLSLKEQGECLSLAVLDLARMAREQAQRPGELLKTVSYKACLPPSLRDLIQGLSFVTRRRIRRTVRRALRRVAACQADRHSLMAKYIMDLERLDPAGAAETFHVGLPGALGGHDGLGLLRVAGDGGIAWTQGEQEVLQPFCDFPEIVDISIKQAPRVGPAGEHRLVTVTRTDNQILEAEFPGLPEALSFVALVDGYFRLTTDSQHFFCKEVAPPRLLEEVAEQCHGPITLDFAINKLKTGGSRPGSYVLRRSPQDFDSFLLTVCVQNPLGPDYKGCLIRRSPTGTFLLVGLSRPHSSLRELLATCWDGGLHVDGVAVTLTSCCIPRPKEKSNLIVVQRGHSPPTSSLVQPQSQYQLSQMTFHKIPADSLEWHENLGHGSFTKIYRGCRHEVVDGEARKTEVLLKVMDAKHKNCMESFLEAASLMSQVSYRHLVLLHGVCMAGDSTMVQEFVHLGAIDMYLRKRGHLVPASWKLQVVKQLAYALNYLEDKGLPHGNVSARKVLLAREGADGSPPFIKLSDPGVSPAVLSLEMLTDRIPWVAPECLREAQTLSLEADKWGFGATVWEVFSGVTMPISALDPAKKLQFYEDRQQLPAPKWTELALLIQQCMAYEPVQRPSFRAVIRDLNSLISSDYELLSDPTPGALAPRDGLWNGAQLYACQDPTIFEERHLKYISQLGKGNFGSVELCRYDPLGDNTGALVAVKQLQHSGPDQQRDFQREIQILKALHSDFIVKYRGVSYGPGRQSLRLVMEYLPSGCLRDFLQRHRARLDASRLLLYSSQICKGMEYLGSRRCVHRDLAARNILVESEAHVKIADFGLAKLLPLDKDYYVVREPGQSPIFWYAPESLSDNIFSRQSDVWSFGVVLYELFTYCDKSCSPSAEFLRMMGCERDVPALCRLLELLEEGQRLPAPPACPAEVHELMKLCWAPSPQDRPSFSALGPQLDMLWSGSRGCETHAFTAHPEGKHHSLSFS

The following compounds have reported results that may help.
CC(=O)N[C@H]1CC[C@H](NC(=O)c2cnn3cc(-c4ccncc4)nc3c2NC(C)C)CC1 :: ~4455
CC(C)Nc1c(C(=O)NCCNS(C)(=O)=O)cnc2cc(-c3ccncc3F)nn12 :: >63
CC(C)Nc1c(C(=O)NC[C@@H](F)C(C)(C)O)cnn2cc(Nc3cc(C#N)ccn3)cc12 :: >81
Cc1cc(F)ncc1-c1cc2c(NC(C)C)c(C(=O)N[C@H]3CC[C@H](c4nc[nH]n4)CC3)cnn2c1 :: >9615
CC(C)Nc1c(C(=O)NCCC(C)(C)O)cnn2cc(-c3ccncc3F)nc12 :: >4167
CC(C)(O)[C@H](F)CNC(=O)c1cnc2cc(-c3cccnc3)nn2c1NCC(F)F :: >33

Inquiry: Record request: Ratio of JAK3 IC50 to IRAK4 IC50 value, item CC(=O)N[C@H]1CC[C@H](NC(=O)c2cnn3cc(-c4cccnc4F)cc3c2NC(C)C)CC1
Reply text: ~4565

Inquiry: Then what about the compound COc1ncccc1-c1cc2ncc(C(=O)NC[C@@H](F)C(C)(C)O)c(NC(C)C)n2n1 ?
Reply text: >16

Inquiry: Then what about the compound CCOC(=O)N[C@H]1CC[C@H](NC(=O)c2cnn3cc(-c4ccncc4F)cc3c2NC(C)C)CC1 ?
Reply text: 3846

Inquiry: Then what about the compound CC(C)(O)[C@H](F)CNC(=O)c1cnn2cc(-c3ccncc3)cc2c1NC1CCOCC1 ?
Reply text: >2941

Inquiry: Then what about the compound CC(C)(O)CCNc1c(C(=O)NC[C@@H](F)C(C)(C)O)cnn2cc(-c3cccnc3)cc12 ?
Reply text: >179

----------
List of pIC50 tested on IRAK4 (Homo sapiens (Human), UniProt Q9NWZ3).
Sequence (Q9NWZ3 whole entry, species assumed): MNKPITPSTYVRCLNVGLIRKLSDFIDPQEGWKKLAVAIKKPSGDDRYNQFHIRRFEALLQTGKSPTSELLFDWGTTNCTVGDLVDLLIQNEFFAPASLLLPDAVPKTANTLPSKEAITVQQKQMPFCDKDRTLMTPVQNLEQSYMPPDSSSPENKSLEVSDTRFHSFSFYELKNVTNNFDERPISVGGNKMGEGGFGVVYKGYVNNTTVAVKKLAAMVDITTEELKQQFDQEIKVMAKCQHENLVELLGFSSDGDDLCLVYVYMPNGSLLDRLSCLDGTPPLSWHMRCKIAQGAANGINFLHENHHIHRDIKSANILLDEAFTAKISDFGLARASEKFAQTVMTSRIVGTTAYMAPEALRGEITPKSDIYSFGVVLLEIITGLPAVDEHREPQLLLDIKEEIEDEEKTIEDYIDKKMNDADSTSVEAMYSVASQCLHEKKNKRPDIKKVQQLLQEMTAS
API: returns pIC50 as number; meaning -log10 of concentration in mol/L.

The following molecules have reported results that may help.
CC(C)(O)CCNc1c(C(=O)NC[C@@H](F)C(C)(C)O)cnn2cc(-c3ccc(C#N)nc3)cc12 :: 6.62
CC(C)Nc1c(C(=O)NC[C@@H](F)C(C)(C)O)cnn2cc(-c3cnn4cc(Cl)cnc34)cc12 :: 7.41
CC(C)Nc1c(C(=O)NC[C@@H](F)C(C)(C)O)cnn2cc(Nc3ccncn3)cc12 :: 7.09

Inquiry: Record request: pIC50 value, item CC(C)Nc1c(C(=O)N[C@H]2CC[C@H](N)CC2)cnn2cc(-c3ccncc3)cc12
Reply text: 8.04

Inquiry: Then what about the molecule CC(C)(O)CCNc1c(C(=O)NC[C@@H](F)C(C)(C)O)cnn2cc(-c3cccc(F)c3)cc12 ?
Reply text: 6.43

Inquiry: Then what about the molecule CC(C)Nc1c(C(=O)NC[C@@H](F)C(C)(C)O)cnc2cc(C3CC3)nn12 ?
Reply text: 6.38

Inquiry: Then what about the molecule CC(C)Nc1c(C(=O)NC[C@@H](F)C(C)(C)O)cnn2cc(-c3ccncc3F)cc12 ?
Reply text: 8.46

Inquiry: Then what about the molecule CC(C)Nc1c(C(=O)NC[C@@H](F)C(C)(C)O)cnc2cc(-c3cccnc3F)nn12 ?
Reply text: 7.32
